These data points were gathered from patent US20240400986A1.

Property: Viability; scope: individual compounds
- Tested on: cardiomyocytic cell line derived from human ventricular heart tissue
- testName: Cell viability in cardiomyocyte compound screen (CellTiter-Glo)
- Format: cell-based
- cond: Table 22; dose 100 nM; cardiomyocytes, 24 hours
Counter-ions that a name gives are not always drawn.

compound | endpointUnit | relationOperator | Viability
O=C(O)c1cccnc1C(=O)O | % | = | 100
C=C(C)[C@@H]1CC[C@]2(CO)CC[C@]3(C)[C@H](CC[C@@H]4[C@@]5(C)CC[C@H](O)C(C)(C)[C@@H]5CC[C@]43C)[C@@H]12 | % | = | 100
O=C(Nc1ccncc1)c1cc([N+](=O)[O-])ccc1Cl | % | = | 100
CC1=C(O)C(=O)C=C2C1=CC=C1[C@@]2(C)CC[C@@]2(C)[C@@H]3C[C@](C)(C(=O)O)CC[C@]3(C)CC[C@]12C [Tripterin, reference compound] | % | > | 75
CC[C@@]1([C@@H]2O[C@@H]([C@H]3O[C@@](O)(CO)[C@H](C)C[C@@H]3C)C[C@@H]2C)CC[C@H]([C@]2(C)CC[C@]3(C[C@H](O)[C@@H](C)[C@@H]([C@@H](C)[C@@H](OC)[C@H](C)C(=O)O)O3)O2)O1 [Monensin sodium salt] | % | > | 75
CO/C1=C\C(C)=C\[C@@H](C)[C@@H](O)[C@@H](C)C/C(C)=C/C=C/[C@H](OC)[C@@H]([C@@H](C)[C@@H](O)[C@H](C)[C@@]2(O)C[C@@H](O)[C@H](C)[C@@H](C(C)C)O2)OC1=O [Bafilomycin A1, reference compound] | % | > | 75

* * *

- Test system: neuronal cell line derived from human neuroblastoma
- testName: Small molecule compound screen of gigasome production in neuronal monocultures
- cond: neuronal cells, dose 10 nM, 24 hours
Property: Fold Change of Gigasomes Produced vs. DMSO; scope: individual molecules
readout: Fold Change of Gigasomes Produced vs. DMSO

molecule | recordedResult
CCCn1cnc2c(NCc3ccc(C)s3)nc(N[C@H](CC)CO)nc21 [GV-58, reference compound] | 0.75-1.0
COC(=O)c1ccccc1NC(=O)c1ccc(F)cc1 [EXO1, reference compound] | 0.75-1.0
O=C(Nc1ccc(O)c(C(=O)O)c1)c1cccc(NC(=O)c2ccco2)c1 | 1.0-1.25
COc1ccc(C[C@H]2NC[C@H](O)[C@H]2OC(C)=O)cc1 | 1.0-1.25
CO/C1=C\C(C)=C\[C@@H](C)[C@@H](O)[C@@H](C)C/C(C)=C/C=C/[C@H](OC)[C@@H]([C@@H](C)[C@@H](O)[C@H](C)[C@@]2(O)C[C@@H](O)[C@H](C)[C@@H](C(C)C)O2)OC1=O [Bafilomycin A1, reference compound] | 1.75-2.0

* * *

- System: neuronal cell line derived from human neuroblastoma
- testName: Small molecule compound screen of gigasome production in neuronal monocultures
- cond: neuronal cells, dose 1000 nM, 24 hours
readout: Fold Change of Gigasomes Produced vs. DMSO

molecule | recordedResult
O=C(Nc1ccc(O)c(C(=O)O)c1)c1cccc(NC(=O)c2ccco2)c1 [OSS128167] | 0.75-1.0
CCCn1cnc2c(NCc3ccc(C)s3)nc(N[C@H](CC)CO)nc21 [GV-58, reference compound] | 0.75-1.0
CCCCc1ccc(NC(C)=O)c(C)c1 [SMIP004] | 0.75-1.0
COc1ccc(C[C@H]2NC[C@H](O)[C@H]2OC(C)=O)cc1 [Anisomycin] | 1.75-2.0
COC(=O)c1ccc([C@@H]2c3[nH]c4ccccc4c3C[C@@H](C(=O)OC)N2C(=O)CCl)cc1 [RSL3, reference compound] | 2.0-3.0
O=C(/C=C/c1ccc(/C=C/C(=O)Nc2ccc(C3=NCCN3)cc2)cc1)Nc1ccc(C2=NCCN2)cc1 [GW4869, reference compound] | 0.25-0.5

* * *

- System: neuronal cell line derived from human neuroblastoma
- cond: neuronal cells, dose 1000 nM, 24 hours
readout: Viability

compound | readout | recordedResult
COC(=O)c1ccc([C@@H]2c3[nH]c4ccccc4c3C[C@@H](C(=O)OC)N2C(=O)CCl)cc1 [RSL3, reference compound] | Viability | >75%
COc1ccc(C[C@H]2NC[C@H](O)[C@H]2OC(C)=O)cc1 | Viability | 50-75%
CCCn1cnc2c(NCc3ccc(C)s3)nc(N[C@H](CC)CO)nc21 [GV-58, reference compound] | Viability | 100%
CC(C)(O)c1coc(S(=O)(=O)NC(=O)Nc2c3c(cc4c2CCC4)CCC3)c1 [MCC950 sodium] | Viability | 100%

* * *

- System: cardiomyocytic cell line derived from human ventricular heart tissue
- testName: Cell viability in cardiomyocyte compound screen (CellTiter-Glo)
- Format: cell-based
- cond: Table 23 (down-regulators); dose 10 nM; cardiomyocytes
readout: Viability

compound | experimentalTarget | recordedResult
CCCCCCCCCCCCCCOc1ccc(C(=O)O)o1 [TOFA] | cardiomyocytic cell line derived from human ventricular heart tissue | >75%
O=C(O)CC[N+](=O)[O-] [3-Nitropropanoic acid, reference compound] | cardiomyocytic cell line derived from human ventricular heart tissue | >75%
Cn1cnc(N)c2ncnc1-2 [Compound 3-Methyladenine, 3-Methyladenine] | cardiomyocytic cell line derived from human ventricular heart tissue | >75%

* * *

- System: cardiomyocytic cell line derived from human ventricular heart tissue
- testName: Small molecule compound screen of gigasome production in cardiomyocytic monocultures;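 note: gigasomes shed into the culture medium were imaged by confocal microscopy and counted as round particles lacking nuclear signal, extrapolated to the whole well, fold change is relative to DMSO vehicle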
- cond: Table 23 (down-regulators); dose 100 nM; cardiomyocytes
Where a name gives a salt, the structure may show the parent alone.
readout: Number of Gigasomes Produced

molecule | experimentalTarget | recordedResult
CCCCCCCCCCCCCCOc1ccc(C(=O)O)o1 | cardiomyocytic cell line derived from human ventricular heart tissue | 105-120
O=C(Oc1cccc(F)c1OC(=O)c1cccc(O)c1)c1cccc(O)c1 [WZB117, reference compound] | cardiomyocytic cell line derived from human ventricular heart tissue | 105-120
O=c1ncn2nc(Sc3ccc(F)cc3F)ccc2c1-c1c(Cl)cccc1Cl | cardiomyocytic cell line derived from human ventricular heart tissue | 90-105
CN(C)CCCSC(=N)N [Dimaprit dihydrochloride] | cardiomyocytic cell line derived from human ventricular heart tissue | 75-90
COc1cc(O)c2c(c1)oc(=O)c1c3cc(O)c(O)cc3oc21 [Wedelolactone, reference compound] | cardiomyocytic cell line derived from human ventricular heart tissue | 75-90
